Reference source: paper PMC9090415

Here the recorded % inhibition Apo pol 5' is given for each entry.
# target-under-test: P. falciparum apicoplast DNA polymerase (Pf-apPOL) (Plasmodium falciparum)
# experiment-summary: Fluorescence-based high-throughput DNA polymerase assay (molecular beacon), primary screen and dose-response
# Format: biochemical
# condition-set: DRC-2; 5'; concentration 10
# Description: The HT assay employs a molecular beacon, a stem-loop DNA template with a Cy3 dye and the Black Hole Quencher on the 3′ and 5′ ends of the DNA, respectively. Pf-apPOL concentration is based on a calculated absorptivity of ε280 = 56750 M^−1 cm^−1. […] To identify apPOL inhibitors we utilised our previously developed high-throughput DNA polymerase assay. […] The assay accurately recapitulates the kinetic behaviour of apPOL, as measured through more conventional low-throughput gel-based assays. […]
Unit % implied. Number only.

compound | value-type | number
COc1ccc(-c2n[nH]cc2Oc2ccc(Cl)cc2)c(O)c1 | % inhibition Apo pol 5' | 39
O=c1[nH]c2ccc(Br)cc2c(-c2ccccc2)c1C1=NNC(c2ccco2)C1 (stereo not drawn) | % inhibition Apo pol 5' | 40

# context switch: different compound, same % inhibition Apo pol 5'
Summary for this compound, COCC(=O)Nc1c(-c2cccc(F)c2)nc2cc(C)ccn12 : % inhibition Apo pol 5' is 41

---

List of % inhibition apPOL 180' values.
# target-under-test: P. falciparum apicoplast DNA polymerase (Pf-apPOL) (Plasmodium falciparum)
# experiment-summary: Fluorescence-based high-throughput DNA polymerase assay (molecular beacon), primary screen and dose-response
# Assay type: biochemical
# condition-set: DRC-1; 180'; concentration 5
Express it in %; write the number only.

compound | target-under-test | uom | % inhibition apPOL 180'
Cc1ncc(CSc2nc(C(C)(C)C)cs2)c(CO)c1O | P. falciparum apicoplast DNA polymerase (Pf-apPOL) (Plasmodium falciparum) | % | -5.176

The recorded % inhibition apPOL 180' for CO/N=C(\C(=O)N[C@@H]1C(=O)N2C(C(=O)[O-])=C(CSc3nc(=O)c([O-])nn3C)CSC12)c1csc(N)n1.[Na+].[Na+] (stereo partly shown) is -16.0147

Noted for CCOC(=O)C(NCc1ccco1)(NC(=O)c1ccco1)C(F)(F)F (stereo not shown) : its % inhibition apPOL 180' reads -6.365

Lookup result for O=C(c1c[nH]c2ncccc12)N1CCCC1 [Molecule 63, O=C(c1c[nH]c2c1cccn2)N1CCCC1] ; measured % inhibition apPOL 180': -1.279

Entry under test: O=C1C(=Cc2ccccc2O)Oc2ccc(O)cc21 . Its % inhibition apPOL 180' was 3.658

Just so you know, measured % inhibition apPOL 180' for O=[N+]([O-])/C=C/c1ccc(-c2ccc(Br)cc2)o1 came out at 3.824

Just so you know, measured % inhibition apPOL 180' for O=C(O)CC1SC(c2ccc3c(c2)OCO3)=NC1=O (stereo not shown) came out at -4.006

The compound listed as O=C(Cn1ccc2c(=O)[nH]ccc21)Nc1cc(F)ccc1F [Molecule 42, O=C(Cn1ccc2c1cc[nH]c2=O)Nc1cc(F)ccc1F] has a reported % inhibition apPOL 180' of -3.837

---

Each entry below carries its reported % inhibition T4 90' 2.5.
# target-under-test: bacteriophage T4 DNA polymerase (Enterobacteria phage T4)
# Construct: made in house
# experiment-summary: Counter-screen against bacteriophage T4 DNA polymerase
# Format: biochemical
# condition-set: DRC-2; read at 90'; concentration 2.5
Could you give me the number in %? Just the number is fine.

compound | uom | % inhibition T4 90' 2.5
O=C(CCc1csc(NC(=O)Nc2ccccc2)n1)Nc1nc2ccccc2s1 [KU0177354] | % | -7
Cn1nc(-c2nc(-c3ccccc3)no2)c2c1CCN(C(=O)Cc1cccs1)C2 [Molecule 58] | % | 2.76
Cn1nc(-c2nnc(-c3ccccc3F)o2)c2c1CCN(C(=O)c1ccccc1Cl)C2 [Molecule 34] | % | -0.872
Cc1nc(C)c2c(n1)N(CC1CCCCC1)C(=O)CC2 [KU0218606] | % | 4
O=C(c1ccccc1)N1CCc2c(nc3cc(-c4ccccc4)[nH]n3c2=O)C1 [Molecule 30] | % | 1
CC(=O)OCC1=C(C(=O)[O-])N2C(=O)[C@@H](NC(=O)Cc3cccs3)[C@H]2SC1.[Na+] [Molecule 73] | % | 1.28
C#CC(C=CC)OC(=O)c1ccccc1C(=O)O (stereo not shown) [Molecule 61, CC=CC(OC(=O)c1ccccc1C(=O)O)C#C] | % | -3.79
O=C1CSC2=NC3=C(CCc4ccccc43)C(c3cccs3)N12 (stereo not shown) [Molecule 59, O=C1CSC2=NC3=C(C(N12)c1cccs1)CCc1c3cccc1] | % | 30

Entry Cc1cc2[nH]c(C(=O)Nc3ccc(F)cc3)c(CN3CCOCC3)c2s1 [Molecule 60] ; % inhibition T4 90' 2.5 = 4

# compound N#Cc1c(O)nc(N2CCCCC2)nc1-c1ccc2c(c1)OCO2 [KU0083146] ; its % inhibition T4 90' 2.5 = 13

---

Parameter: % inhibition Apo pol 5'. Scope: all listed entries.
# target-under-test: P. falciparum apicoplast DNA polymerase (Pf-apPOL) (Plasmodium falciparum, UniProt Q8ILY1)
# Sequence (Q8ILY1 entry or part of it): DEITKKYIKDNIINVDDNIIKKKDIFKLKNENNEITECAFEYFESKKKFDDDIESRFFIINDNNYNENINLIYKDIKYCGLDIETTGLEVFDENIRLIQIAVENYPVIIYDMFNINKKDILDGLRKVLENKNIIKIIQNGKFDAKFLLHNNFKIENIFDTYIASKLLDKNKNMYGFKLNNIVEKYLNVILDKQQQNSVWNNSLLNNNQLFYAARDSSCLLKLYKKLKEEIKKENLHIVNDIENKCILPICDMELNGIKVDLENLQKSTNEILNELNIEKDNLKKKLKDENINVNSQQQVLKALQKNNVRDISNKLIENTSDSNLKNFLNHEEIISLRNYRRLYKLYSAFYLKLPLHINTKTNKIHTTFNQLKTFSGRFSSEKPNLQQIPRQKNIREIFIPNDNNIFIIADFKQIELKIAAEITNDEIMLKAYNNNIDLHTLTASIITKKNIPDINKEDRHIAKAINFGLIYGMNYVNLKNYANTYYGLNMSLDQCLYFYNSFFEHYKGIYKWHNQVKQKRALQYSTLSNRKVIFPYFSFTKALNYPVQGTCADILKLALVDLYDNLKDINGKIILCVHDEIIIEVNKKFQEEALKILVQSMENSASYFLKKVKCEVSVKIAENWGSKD
# experiment-summary: Fluorescence-based high-throughput DNA polymerase assay (molecular beacon), primary screen and dose-response
# Format: biochemical
# condition-set: DRC-2; 5'; concentration 10

compound | result
O=C(Nc1c2c(nn1-c1ccc(Oc3ccccc3)cc1)CSC2)c1ccco1 [KU0055927] | 40%

Could you now consider this next compound?
Fill in: P. falciparum apicoplast DNA polymerase (Pf-apPOL) (Plasmodium falciparum, UniProt Q8ILY1) % inhibition Apo pol 5' for Nc1c(S(=O)(=O)O)cc(Nc2ccccc2)c2c1C(=O)c1ccccc1C2=O [KU0045407] = 39%

---

# reported % inhibition T4 40'; entries follow
# target-under-test: bacteriophage T4 DNA polymerase (Enterobacteria phage T4, UniProt P04415)
# Construct: made in house
# Sequence (P04415 whole entry): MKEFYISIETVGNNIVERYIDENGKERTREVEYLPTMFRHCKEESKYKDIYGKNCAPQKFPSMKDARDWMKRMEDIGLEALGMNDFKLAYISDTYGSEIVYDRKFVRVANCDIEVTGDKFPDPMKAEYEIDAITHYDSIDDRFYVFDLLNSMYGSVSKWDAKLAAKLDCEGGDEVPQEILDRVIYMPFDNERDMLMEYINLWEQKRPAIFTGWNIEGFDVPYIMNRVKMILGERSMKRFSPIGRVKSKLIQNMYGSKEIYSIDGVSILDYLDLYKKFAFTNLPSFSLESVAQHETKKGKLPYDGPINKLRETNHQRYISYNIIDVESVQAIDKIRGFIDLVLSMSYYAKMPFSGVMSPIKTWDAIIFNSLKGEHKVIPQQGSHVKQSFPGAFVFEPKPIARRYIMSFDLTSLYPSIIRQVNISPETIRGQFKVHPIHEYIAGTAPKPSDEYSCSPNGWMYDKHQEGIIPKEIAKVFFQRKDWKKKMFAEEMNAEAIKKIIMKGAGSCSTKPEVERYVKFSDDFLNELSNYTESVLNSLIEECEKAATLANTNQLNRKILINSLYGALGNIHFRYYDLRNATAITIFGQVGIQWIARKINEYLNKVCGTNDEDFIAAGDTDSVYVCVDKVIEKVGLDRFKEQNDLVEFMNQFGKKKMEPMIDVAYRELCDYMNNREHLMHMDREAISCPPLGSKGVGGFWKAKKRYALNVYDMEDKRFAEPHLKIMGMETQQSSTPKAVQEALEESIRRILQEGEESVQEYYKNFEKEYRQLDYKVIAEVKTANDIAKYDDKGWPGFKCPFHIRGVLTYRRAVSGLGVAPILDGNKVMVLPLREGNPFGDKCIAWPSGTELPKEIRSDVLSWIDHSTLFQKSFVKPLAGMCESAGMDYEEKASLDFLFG
# experiment-summary: Counter-screen against bacteriophage T4 DNA polymerase
# Assay type: biochemical
# condition-set: DRC-2; 40'; concentration 80
Answer shape: numeric part, then the unit.

smiles-structure | target-under-test | % inhibition T4 40'
CN(C)S(=O)(=O)Oc1ccc(-c2noc(-c3ccc(Oc4cc(Cl)cc(Cl)c4)o3)n2)cc1 | bacteriophage T4 DNA polymerase (Enterobacteria phage T4, UniProt P04415) | 43%

GET /value?item= CC1(C)CC(=O)C2=C(C1)OC1=C(C(=O)CC(C)(C)C1)C2c1ccc(O)cc1 &field=% inhibition T4 40' returns 30%

// sample CCCCC(=O)N1CCc2c(nc3cc(-c4ccccc4Cl)[nH]n3c2=O)C1 , its % inhibition T4 40' was 1.57%

---

# target-under-test: P. falciparum apicoplast DNA polymerase (Pf-apPOL) (Plasmodium falciparum)
# experiment-summary: Fluorescence-based high-throughput DNA polymerase assay (molecular beacon), primary screen and dose-response
# Assay type: biochemical
# condition-set: DRC-1; concentration 5; 180'
Below, each of the compounds is paired with its reported % inhibition apPOL 180' value.

Observe how each entry below is paired with its result.
compound | target-under-test | value-type | result
Nc1ncnc(NC2CCCCC2)c1[N+](=O)[O-] | P. falciparum apicoplast DNA polymerase (Pf-apPOL) (Plasmodium falciparum) | % inhibition apPOL 180' | 11.4393%
COc1ccc(NC(=O)Cn2nc3c(cc2=O)CCC3)cc1Cl | P. falciparum apicoplast DNA polymerase (Pf-apPOL) (Plasmodium falciparum) | % inhibition apPOL 180' | 17%
O=C(Cc1cccs1)N1CCN(c2nc(CN3CCOCC3)cs2)CC1 | P. falciparum apicoplast DNA polymerase (Pf-apPOL) (Plasmodium falciparum) | % inhibition apPOL 180' | -2.23%
COc1ccc(C=C2Oc3c(ccc4c3CN(Cc3ccco3)CO4)C2=O)c(OC)c1 | P. falciparum apicoplast DNA polymerase (Pf-apPOL) (Plasmodium falciparum) | % inhibition apPOL 180' | 25.2477%
Oc1cccnc1/N=C/c1cc(I)cc(I)c1O | P. falciparum apicoplast DNA polymerase (Pf-apPOL) (Plasmodium falciparum) | % inhibition apPOL 180' | 7.696%

The compound O=C(O)c1cc([N+](=O)[O-])c(N2CCN(c3cccc(C(F)(F)F)c3)CC2)c([N+](=O)[O-])c1 showed % inhibition apPOL 180' equal to 9.492%

Measured % inhibition apPOL 180', O=C1c2ccccc2C(=O)c2c1oc1c3c(ccc21)OCN(C1CCCC1)C3 : 20.5988%

Entry under test: Cc1ccnc(NS(=O)(=O)c2ccc(-n3cccc3)cc2)n1 . Its % inhibition apPOL 180' was 1.685%

Notebook: O=C(Cn1ccc2c(=O)[nH]ccc21)Nc1ccccc1Cl [Molecule 19, O=C(Cn1ccc2c1cc[nH]c2=O)Nc1ccccc1Cl] , % inhibition apPOL 180' read as -2.382%

Lab note: measured % inhibition apPOL 180' of O=[N+]([O-])c1ccc(SCc2ccco2)c2cccnc12 was 6.603%
